- assayed.target: huCD28 (human, UniProt P10747 19-152, limits assumed)
- method.notes: SPR, OAA format
measured.endpoint: pKd
Please report pKd as the negative decimal logarithm of the molar concentration, giving only the number.

>  <binder>
v37888 (antibody, V domains shown, OAA format as v34891; also called huTN228 N1066Q (VL) OAA) VH: QVQLQESGPGLVKPSETLSLTCAVSGFSLTSYGVHWIRQPPGKGLEWLGVIWPGGGTNFNSALMSRLTISEDTSKNQVSLKLSSVTAADTAVYYCARDRAYGNYLYAMDYWGQGTLVTVSS VL: DIQMTQSPSSLSASVGDRVTITCRASESVEYYVTSLMQWYQQKPGKAPKLLIYAASQVDSGVPSRFSGSGSGTDFTLTISSLQPEDIATYYCQQSRKVPFTFGGGTKVEIK

>  <pKd>
7.27

$$$$
>  <binder>
v37878 (antibody, V domains shown, OAA format as v34891; also called huTN228 K1109A (VL) OAA) VH: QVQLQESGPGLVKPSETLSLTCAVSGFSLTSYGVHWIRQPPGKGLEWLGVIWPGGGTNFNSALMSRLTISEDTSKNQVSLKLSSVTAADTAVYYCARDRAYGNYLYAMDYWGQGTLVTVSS VL: DIQMTQSPSSLSASVGDRVTITCRASESVEYYVTSLMQWYQQKPGKAPKLLIYAASNVDSGVPSRFSGSGSGTDFTLTISSLQPEDIATYYCQQSRAVPFTFGGGTKVEIK

>  <pKd>
6.77

$$$$
>  <binder>
v37891 (antibody, V domains shown, OAA format as v34891; also called huTN228 L1053I (VH) OAA) VH: QVQLQESGPGLVKPSETLSLTCAVSGFSLTSYGVHWIRQPPGKGLEWIGVIWPGGGTNFNSALMSRLTISEDTSKNQVSLKLSSVTAADTAVYYCARDRAYGNYLYAMDYWGQGTLVTVSS VL: DIQMTQSPSSLSASVGDRVTITCRASESVEYYVTSLMQWYQQKPGKAPKLLIYAASNVDSGVPSRFSGSGSGTDFTLTISSLQPEDIATYYCQQSRKVPFTFGGGTKVEIK

>  <pKd>
7.32

$$$$
>  <binder>
v37854 (antibody, V domains shown, OAA format as v34891; also called huTN228 Y1110A (VH) OAA) VH: QVQLQESGPGLVKPSETLSLTCAVSGFSLTSYGVHWIRQPPGKGLEWLGVIWPGGGTNFNSALMSRLTISEDTSKNQVSLKLSSVTAADTAVYYCARDRAAGNYLYAMDYWGQGTLVTVSS VL: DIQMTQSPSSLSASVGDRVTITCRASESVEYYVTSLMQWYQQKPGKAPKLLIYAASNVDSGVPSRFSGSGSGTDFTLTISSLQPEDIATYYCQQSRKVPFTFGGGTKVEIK

>  <pKd>
7.10

$$$$

# input Give the measured pKd for v37851 (antibody, V domains shown, OAA format as v34891; also called huTN228 N1066A (VH) OAA) VH: QVQLQESGPGLVKPSETLSLTCAVSGFSLTSYGVHWIRQPPGKGLEWLGVIWPGGGTAFNSALMSRLTISEDTSKNQVSLKLSSVTAADTAVYYCARDRAYGNYLYAMDYWGQGTLVTVSS VL: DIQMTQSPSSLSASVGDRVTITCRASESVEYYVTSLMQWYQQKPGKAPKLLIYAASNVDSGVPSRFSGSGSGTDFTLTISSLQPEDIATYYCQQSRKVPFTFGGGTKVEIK
# output 6.39

Sourced from patent US20260028403A1
